In this section, each of the variants is paired with its reported normalized RNA/DNA level with ligand (log10).
B1: library; a variant is named by its letters at N, in order (parent)
chain: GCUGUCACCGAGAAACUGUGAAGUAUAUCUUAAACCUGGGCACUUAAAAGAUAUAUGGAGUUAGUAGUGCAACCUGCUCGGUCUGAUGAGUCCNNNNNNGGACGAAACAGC

Variants of: B1
assayProtocol: normalized RNA/DNA level with ligand (relative to sTRSVctl = 100) (log10 (% of sTRSVctl)); HEK293T; ligand: cyclic di-GMP (c-di-GMP-II aptamer); ligand concentration (+) RNA-Seq: 1 mM; higher = less ribozyme self-cleavage, higher mRNA level
protocolConditions: reporter: mCherry (pCS4076), ligand present: yes
quantityKind: normalized RNA/DNA level with ligand (log10)

- CAUGGA: 1.74
- GUCGUA: 1.78
- CCGCCA: 1.85
- AUGUGC: 1.77
- UGGCAC: 1.86
- CGCCUC: 1.85
- UGCGUC: 1.85
- CGUACU: 1.66
- CUUAGA: 1.79
- UUCGUU: 1.87
- GAUCAC: 1.84
- UGCCCC: 1.93
- ACCUUU: 1.82
- UGUGGU: 1.81
- CCCAAA: 1.69
- AACACG: 1.74
- AACAUA: 1.74
- GUUGCA: 1.87
- UUGCGG: 1.94
- CUGCCA: 1.76
- CCACUA: 1.66
- CAUUUC: 1.82
- CGAAAC: 1.77
- AUAUAA: 1.67
- CGUGCC: 1.84
- AUAUGU: 1.8
- AAAAAA: 1.6
- GCUGCC: 1.83
- GCGCAG: 1.9
- ACGAUG: 1.72
- CACUUA: 1.59
- GUAUUC: 1.7
- AAAGGC: 1.77
- UUUCUC: 1.92
- AACUAA: 1.74
- GCACGG: 1.66
- GCCCAU: 1.85
- CUGUCU: 1.76
- AACUAU: 1.79
- GAGAUU: 1.82
- UGUUUG: 1.91
- GUCAGG: 1.81
- ACUAGU: 1.8
- UAAAUA: 1.78
- GGGAAU: 1.79
- AUAAGU: 1.73
- CGCAUC: 1.83
- UCCGAU: 1.79
- AGGUCA: 1.77
- UGUCAU: 1.81
- CUAGCA: 1.78
- UCACUU: 1.77
- CUGGCC: 1.87
- GCCAGA: 1.68
- AUUAAU: 1.8
- AUACUG: 1.73
- CGUGUA: 1.56
- CGUGUG: 1.8
- CUAAUA: 1.6
- AUCGCC: 1.88
- CCCAAC: 1.82
- AGCUAG: 1.72
- UGAGUU: 1.8
- CUGAGU: 1.83
- UCGAUA: 1.51
- AGGCCU: 1.89
- GCCUAC: 1.72
- GUGUGC: 1.63
- GGCGCG: 1.83
- CGUGCG: 1.83
- CCAUUC: 1.77
- AUGUAC: 1.79
- UAAUCC: 1.89
- GUAUGG: 1.7
- GUUCUG: 1.84
- UGUUGU: 1.9
